assay: Blood chemistry, complete blood count and histopathology; assay type: in vivo, mice; conditions: irestatin-treated nude mice, terminal cardiac blood draw; mean
PARAMETER_MEASURED: Na/K Ratio

Cc1csc(NC(=O)CSc2nc3c(c(C(F)(F)F)c2C#N)CCC3)n1 [Compound 9389]; 20.3
